As shown below, each of these sequences has a reported phosphorylation enrichment value.
Target: Jak2 (UniProt O60674)
Sequence (O60674 whole entry, looked up): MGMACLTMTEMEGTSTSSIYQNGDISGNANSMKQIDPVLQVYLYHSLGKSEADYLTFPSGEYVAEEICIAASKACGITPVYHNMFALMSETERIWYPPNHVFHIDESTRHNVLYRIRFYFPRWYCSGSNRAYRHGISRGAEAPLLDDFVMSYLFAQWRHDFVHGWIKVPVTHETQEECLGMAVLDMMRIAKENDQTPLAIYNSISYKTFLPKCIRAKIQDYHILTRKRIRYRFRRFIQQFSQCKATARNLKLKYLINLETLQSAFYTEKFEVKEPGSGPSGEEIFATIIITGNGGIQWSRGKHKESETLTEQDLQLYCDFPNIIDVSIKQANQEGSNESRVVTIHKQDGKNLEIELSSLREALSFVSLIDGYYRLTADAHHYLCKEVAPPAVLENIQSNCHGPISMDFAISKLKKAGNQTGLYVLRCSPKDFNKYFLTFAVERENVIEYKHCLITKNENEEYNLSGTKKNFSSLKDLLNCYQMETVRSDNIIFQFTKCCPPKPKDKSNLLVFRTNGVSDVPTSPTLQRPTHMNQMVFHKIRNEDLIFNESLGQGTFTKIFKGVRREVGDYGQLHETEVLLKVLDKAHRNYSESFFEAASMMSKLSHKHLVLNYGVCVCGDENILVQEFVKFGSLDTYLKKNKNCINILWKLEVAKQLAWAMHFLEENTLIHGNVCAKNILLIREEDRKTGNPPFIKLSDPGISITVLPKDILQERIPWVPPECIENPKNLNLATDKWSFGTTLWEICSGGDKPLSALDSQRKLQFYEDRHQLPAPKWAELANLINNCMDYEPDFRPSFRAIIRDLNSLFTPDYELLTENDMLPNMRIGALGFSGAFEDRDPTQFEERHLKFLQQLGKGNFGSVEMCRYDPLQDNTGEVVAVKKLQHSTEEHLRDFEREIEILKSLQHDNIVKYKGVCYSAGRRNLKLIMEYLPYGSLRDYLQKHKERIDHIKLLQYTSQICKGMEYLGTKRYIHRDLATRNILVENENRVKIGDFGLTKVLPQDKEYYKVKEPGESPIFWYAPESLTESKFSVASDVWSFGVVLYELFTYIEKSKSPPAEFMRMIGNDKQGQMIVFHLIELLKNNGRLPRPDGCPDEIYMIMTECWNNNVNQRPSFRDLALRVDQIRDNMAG
Assay: phosphorylation enrichment, bacterial display (enrichment ratio); higher = better substrate or ligand; peptides without Tyr show the background;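 further: 11-residue human phosphosite peptides and single-mutation variants displayed on the E. coli surface, counted by deep sequencing, each peptide's frequency after selection divided by its frequency in the unselected input library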;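 further: frequency after pTyr selection over input frequency; kinase dosed for 20-30% of maximal phosphorylation in three min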
Experimental endpoint: phosphorylation enrichment

• PTDSVYVMPTV [MYO7A_Y1668] = 0.827
• ARIVDYNIIGW [MYH7_Y588_G584R] = 0.671
• FRQNGYIPGSN [PCDHGA1_Y895_V894G_YF] = 0.544
• EVVGRYSVHFA [MLH1_Y183_N187Y_YF] = 0.692
• NQNIGYELGHR [KCNN3_Y268_K269E] = 0.348

Reference for the values: the supplement of paper PMC10065799
